Experiment: PSAC antagonists in infected red cells, primary screen, cell-based, P. falciparum Indochina, OD700, 1 h (AID 1154)
Details: P. falciparum Indochina infected RBC osmotic lysis, higher = more signal, called active from +8 up or from −8 down
Parameter: z-score
Please reply with the value in numeric form only.

The following compounds have reported results that may help.
O=C1c2ccccc2[C@](Cc2ccccc2I)(C(=O)O)[C@H](c2ccc(CO)cc2)N1Cc1ccccc1Cl : 4.07
COc1ccc([Si](C)(C)[C@@H]2[C@@H](CC(=O)N3CCC[C@H]3CO)O[C@]3(C(=O)N(Cc4ccc(I)cc4)c4ccccc43)[C@H]2C)cc1 : 5.17
CC(C)CNC(=O)[C@@H]1c2ccccc2C(=O)N(Cc2ccc(OC(F)(F)F)cc2)[C@H]1c1ccc(CO)cc1 : 2.06
COc1ccc(C#Cc2ccc3c(c2)[C@]2(C(=O)N3)[C@H](c3ccc(O)cc3)N3[C@H](c4ccccc4)[C@H](c4ccccc4)OC(=O)[C@H]3[C@@H]2C(N)=O)cc1 : 2.89
C=CCN1C(=O)[C@@]2(O[C@@H](CCn3cc(CCO)nn3)[C@H]([Si](C)(C)c3ccc(OC)cc3)[C@H]2C)c2cc(NC(=O)c3ccc(OC)cc3)ccc21 : 12.1

Reported z-score for C=C(CCCC)/C(=C/C[C@H](OC(=O)c1ccncc1)c1ccc(CO)o1)c1cnc2ccccc2c1 was 7.89

Reported z-score for CC(=O)NCCCC[C@@H]1NC(=O)[C@@H]2C[C@H](C(=O)O)[C@H](c3cccc(OCCO)c3)N2C1=O was 0.495
